- assayed-system: 5-hydroxytryptamine receptor 3A (Homo sapiens, UniProt P46098); also: assay procedure not described here
- Sequence (P46098 whole entry): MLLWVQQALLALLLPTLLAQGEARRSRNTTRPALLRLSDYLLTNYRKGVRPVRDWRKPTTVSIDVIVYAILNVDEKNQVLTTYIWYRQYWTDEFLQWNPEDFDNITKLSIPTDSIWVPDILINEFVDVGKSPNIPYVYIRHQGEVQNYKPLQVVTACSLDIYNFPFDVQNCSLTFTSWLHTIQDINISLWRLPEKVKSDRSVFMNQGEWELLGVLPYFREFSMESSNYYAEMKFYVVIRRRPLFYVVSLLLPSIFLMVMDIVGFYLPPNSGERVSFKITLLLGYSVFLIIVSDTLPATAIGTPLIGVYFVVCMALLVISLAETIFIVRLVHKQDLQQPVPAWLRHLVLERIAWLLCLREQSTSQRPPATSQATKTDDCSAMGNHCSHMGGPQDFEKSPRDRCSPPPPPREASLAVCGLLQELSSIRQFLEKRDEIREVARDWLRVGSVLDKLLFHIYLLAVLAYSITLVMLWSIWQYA
- Format: functional
endpoint-name: AC50

Query AC50 on 5-hydroxytryptamine receptor 3A (Homo sapiens, UniProt P46098) for CCC(C(=O)O)c1ccc(CC(C)C)cc1 (stereo not given) [BUTIBUFEN]
> 30 µM

Follow-up item: CN1C(=O)COc2c(C(=O)NC3CN4CCC3CC4)cc(Cl)cc21 (stereo not given) [AZASETRON]
0.0162 µM

Param item: N[C@@H](CSCC(=O)O)C(=O)O [CARBOCYSTEINE]
> 30 µM

What about Cc1c(C(=O)Nc2ccc(N3C[C@@H](C)O[C@@H](C)C3)nc2)cccc1-c1ccc(OC(F)(F)F)cc1 [SONIDEGIB] ?
> 10 µM

And for CC(C)C(=O)OCC(=O)[C@@]12O[C@H](C3CCCCC3)O[C@@H]1C[C@H]1[C@@H]3CCC4=CC(=O)C=C[C@]4(C)[C@H]3[C@@H](O)C[C@@]12C [CICLESONIDE] ?
> 30 µM

====

- assayed-system: Amine oxidase [flavin-containing] A (Homo sapiens, UniProt P21397); also: assay procedure not described here
- Sequence (P21397 whole entry): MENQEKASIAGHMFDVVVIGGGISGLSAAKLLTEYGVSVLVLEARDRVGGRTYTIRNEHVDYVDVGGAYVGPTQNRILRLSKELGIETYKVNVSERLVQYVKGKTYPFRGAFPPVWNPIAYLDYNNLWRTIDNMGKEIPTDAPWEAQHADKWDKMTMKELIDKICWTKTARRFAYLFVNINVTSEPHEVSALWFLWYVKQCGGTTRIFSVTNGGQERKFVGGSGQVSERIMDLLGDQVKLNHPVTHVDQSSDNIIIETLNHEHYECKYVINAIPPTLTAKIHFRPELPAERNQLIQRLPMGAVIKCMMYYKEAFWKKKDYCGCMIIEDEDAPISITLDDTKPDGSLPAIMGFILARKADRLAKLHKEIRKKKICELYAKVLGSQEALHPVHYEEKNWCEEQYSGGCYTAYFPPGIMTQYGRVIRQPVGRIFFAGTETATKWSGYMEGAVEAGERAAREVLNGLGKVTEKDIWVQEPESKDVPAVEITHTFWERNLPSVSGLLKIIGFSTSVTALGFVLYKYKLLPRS
- Assay type: functional
Catalogue of compounds with associated AC50

{"columns": ["compound", "assayed-system", "AC50"],
 "data": [
  ["CC(C)Cc1ccc(CC(=O)O)cc1", "Amine oxidase [flavin-containing] A (Homo sapiens, UniProt P21397)", "> 30 µM"],
  ["CCOc1cc(N)c([N+](=O)[O-])cc1C(=O)NC1CCN(CC2CC=CCC2)CC1 (stereo not given) [CINITAPRIDE]", "Amine oxidase [flavin-containing] A (Homo sapiens, UniProt P21397)", "> 30 µM"],
  ["C[C@@H]1O[C@@H]1P(=O)(O)O", "Amine oxidase [flavin-containing] A (Homo sapiens, UniProt P21397)", "> 10 µM"]
]}

What value of measured AC50 is listed for CC(C)[N+](C)(CCC(C(N)=O)(c1ccccc1)c1ccccc1)C(C)C [ISOPROPAMIDE] ?
> 10 µM

One more compound: CS(=O)(=O)c1ccc([C@@H](O)[C@@H](CO)NC(=O)C(Cl)Cl)cc1
> 30 µM

====

Assay system 5-hydroxytryptamine receptor 7 (Homo sapiens); read-out recorded as AC50. Also: assay procedure not described here.

Past entries and their recorded results:
{"columns": ["compound", "AC50"],
 "data": [
  ["C#C[C@]1(O)CC[C@H]2[C@@H]3CCc4cc(O)ccc4[C@H]3CC[C@@]21C", "> 30 µM"],
  ["C[C@H]1O[C@H](O[C@H]2[C@H](O)[C@@H](O)[C@@H](O[C@H]3[C@H](O)[C@@H](O)C(O)O[C@@H]3CO)O[C@@H]2CO)[C@H](O)[C@@H](O)[C@@H]1N[C@H]1C=C(CO)[C@@H](O)[C@H](O)[C@H]1O (some centres undefined)", "> 10 µM"],
  ["CCc1ccc(CCOc2ccc(CC3SC(=O)NC3=O)cc2)nc1 (centres undefined)", "> 10 µM"]
]}

Turning to the following compound.
Find the recorded AC50 belonging to O=C(CCCCCCC(=O)Nc1ccccc1)NO and report it.
> 10 µM
